# Test system: HS 578T breast
# Measurement Protocol: NCI tumour cell line growth inhibition, 48 h
Measured Attribute: TGI

Some solved cases for reference:
Molecule	Measurement Target	TGI
Cc1nc2c(c(N3CCCc4ccccc43)n1)CCC2	HS 578T breast	> 100 µM
Cc1c(O)c(N=Nc2nc3ccccc3s2)c2ccccc2c1O	HS 578T breast	> 50 µM
NC(=NCc1ccccc1)C(N=Nc1ccccc1)C(=O)NCc1ccccc1 (centres undefined)	HS 578T breast	13.9 µM
Clc1cc2nn(C3CCCCO3)nc2cc1Cl (centres undefined)	HS 578T breast	> 100 µM
COc1cc(-c2nc3ccc(N4CCN(C)CC4)cc3[nH]2)c(OC)c2[nH]c(COC(C)=O)nc12	HS 578T breast	> 100 µM
NNC(=O)CC(=O)Nc1cccc(Cl)c1	HS 578T breast	> 100 µM

Read the entry O=C(Nc1ccc(Cc2ccccc2)cc1)Nc1nn(C(=O)Nc2ccc(Cc3ccccc3)cc2)c2ccccc12 and write its reported TGI.
> 100 µM

Return the recorded TGI value; entry: CC(=O)Oc1cc(S(=O)(=O)Nc2n[nH]c(Nc3ccc(C)cc3)n2)c(S)cc1Cl
> 100 µM

For the molecule CC1CCN(Cc2ccc(NC(=O)c3cc4ccc5cccnc5c4[nH]3)cc2)CC1 , give its reported TGI.
28.3 µM
